# measurementDescription: Partition coefficient (logP)
# Assay type: physicochemical
# assayContext: octanol/water
# logP values compiled below
// no unit, no text: just the number

- moleculeSmiles: "CC[C@@]1(O)C(=O)OCc2c1cc1n(c2=O)Cc2c-1nc1ccccc1c2/C=N/CCCCO"
  measuredEndpoint: "logP"
  experimentalValue: 1.57

We next turn to a different compound, shown below.
# return recorded logP for entry CC[C@@]1(O)C(=O)OCc2c1cc1n(c2=O)Cc2c-1nc1ccccc1c2CNCCN(C)C
0.89

---

# measurementDescription: Partition coefficient (logP)
# Format: physicochemical
# assayContext: octanol/water
measuredEndpoint: logP
Output spec: single numeric token, no unit.

Consider the worked cases shown below.
- moleculeSmiles: "CC[C@@]1(O)C(=O)OCc2c1cc1n(c2=O)Cc2c-1nc1ccccc1c2CNc1ccccc1"
  logP: 2.56
- moleculeSmiles: "CC[C@@]1(O)C(=O)OCc2c1cc1n(c2=O)Cc2c-1nc1ccccc1c2CN=C(N)N"
  logP: -0.79
- moleculeSmiles: "CC[C@@]1(O)C(=O)OCc2c1cc1n(c2=O)Cc2c-1nc1ccccc1c2CN"
  logP: 0.37

State its logP: CC[C@@]1(O)C(=O)OCc2c1cc1n(c2=O)Cc2c-1nc1ccccc1c2/C=N/C1CCCCC1
3.08

Read off the recorded logP for CC[C@@]1(O)C(=O)OCc2c1cc1n(c2=O)Cc2c-1nc1ccccc1c2/C=N/Cc1ccccc1
3.26

Give the value of logP reported for the following: CC[C@@]1(O)C(=O)OCc2c1cc1n(c2=O)Cc2c-1nc1ccccc1c2/C=N/c1ccccc1
3.19

Retrieve logP measured for CC[C@@]1(O)C(=O)OCc2c1cc1n(c2=O)Cc2c-1nc1ccccc1c2/C=N/c1ccc([N+](=O)[O-])cc1 and print it.
2.34

Specify logP for CC[C@@]1(O)C(=O)OCc2c1cc1n(c2=O)Cc2c-1nc1ccccc1c2/C=N/N=C(N)N and stop.
0.67

Tell me its logP given CC[C@@]1(O)C(=O)OCc2c1cc1n(c2=O)Cc2c-1nc1ccccc1c2CNC1CCCCC1 as the entry.
2.44

Quote logP reported for CC[C@@]1(O)C(=O)OCc2c1cc1n(c2=O)Cc2c-1nc1ccccc1c2/C=N/CCN(C)C please.
1.53
